# assay target: T1, His-tagged, full-length PCSK9 (human, UniProt Q8NBP7 31-692)
# T1 construct: secreted PCSK9 is autocatalytically cleaved into prodomain and catalytic domain + CRD (from S153), which stay associated; also called His-PCSK9; proprotein convertase subtilisin/kexin type 9; not shown: His tag
# T1 sequence (Q8NBP7 31-692 limits assumed): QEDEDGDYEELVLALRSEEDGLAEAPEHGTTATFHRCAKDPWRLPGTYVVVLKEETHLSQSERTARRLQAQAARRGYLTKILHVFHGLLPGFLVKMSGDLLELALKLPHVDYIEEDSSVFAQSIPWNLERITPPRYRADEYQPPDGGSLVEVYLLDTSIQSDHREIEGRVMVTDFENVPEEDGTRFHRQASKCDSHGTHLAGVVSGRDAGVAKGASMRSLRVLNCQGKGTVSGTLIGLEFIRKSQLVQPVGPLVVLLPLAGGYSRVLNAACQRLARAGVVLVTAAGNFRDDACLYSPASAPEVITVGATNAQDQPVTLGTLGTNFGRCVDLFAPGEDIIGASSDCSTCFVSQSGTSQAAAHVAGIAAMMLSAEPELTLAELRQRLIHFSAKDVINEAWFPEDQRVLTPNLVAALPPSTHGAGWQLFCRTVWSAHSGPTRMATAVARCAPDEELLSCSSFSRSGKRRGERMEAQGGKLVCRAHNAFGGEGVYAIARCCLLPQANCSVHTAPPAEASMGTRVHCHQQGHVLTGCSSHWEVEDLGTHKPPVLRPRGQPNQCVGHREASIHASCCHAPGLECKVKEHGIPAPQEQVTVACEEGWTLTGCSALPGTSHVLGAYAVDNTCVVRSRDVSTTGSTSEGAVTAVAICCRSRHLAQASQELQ
# experiment notes: TR-FRET competition (PCSK9/EGF(A) assay); competitor EGF(A)-Fc;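 also: proximity signal from anti-His APC on PCSK9 paired with anti-Fc europium on the Fc ligand, read as normalized TR-FRET ratio across compound dilutions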
Bridge positions count the residues as written; N and C are the ends. Square brackets hold non-standard residues; d marks the D form.
readout label: IC50

binder	readout label	reported measurement
Ac-CR[dL]PWNLQRIGLPC-NH2 (disulfide 1-14; SMILES CC[C@H](C)[C@@H]1NC(=O)[C@H](CCCNC(=N)N)NC(=O)[C@H](CCC(N)=O)NC(=O)[C@H](CC(C)C)NC(=O)[C@H](CC(N)=O)NC(=O)[C@H](Cc2c[nH]c3ccccc23)NC(=O)[C@@H]2CCCN2C(=O)[C@@H](CC(C)C)NC(=O)[C@H](CCCNC(=N)N)NC(=O)[C@@H](NC(C)=O)CSSC[C@@H](C(N)=O)NC(=O)[C@@H]2CCCN2C(=O)[C@H](CC(C)C)NC(=O)CNC1=O) [Compound 108 (Ac-CRlPWNLQRIGLPC-NH2)]	IC50	> 50 µM
